# Tested on: CCRF-CEM leukemia
# assay details: NCI tumour cell line growth inhibition, 48 h
measured quantity: TGI

Known results for compounds:
Write down measured TGI (CCRF-CEM leukemia) for this compound. CCOC(=O)C(=O)C=P(c1ccccc1)(c1ccccc1)c1ccccc1
> 100 µM

Write TGI of CCCCC(CCCCCC(CCCC)NCc1ccc2c(c1)OCO2)NCc1ccc2c(c1)OCO2 (configuration not stated) ; system used: CCRF-CEM leukemia
2.58 µM

Please report the measured TGI for CCN1CCC(Nc2ccnc3cc(Cl)ccc23)CC1 tested on CCRF-CEM leukemia.
> 100 µM

Param request: TGI | system CCRF-CEM leukemia | item Oc1ccc(O)c(-c2cn3c(n2)SCC3)c1
> 100 µM

Write down measured TGI (CCRF-CEM leukemia) for this compound. COc1cc(OC)c(C(=O)c2cccs2)cc1N
> 100 µM

Others:
Name the value of TGI reported for CCN(CC)CCCC(C)Nc1ccnc2cc(Cl)ccc12 (configuration not stated) when tested on CCRF-CEM leukemia.
> 100 µM

// fetch TGI for CC12C3C4C1C1C2C3C41CO (configuration not stated) ; system: CCRF-CEM leukemia
> 100 µM

Recall the reported TGI of O=C(Nc1cccc2c1C(=O)c1c(NC(=O)c3ccccc3)ccc(Nc3cccc4c3C(=O)c3ccccc3C4=O)c1C2=O)c1ccccc1 on CCRF-CEM leukemia and write it down.
> 100 µM

Look up and report TGI, with CCRF-CEM leukemia as system, for COC(OC)c1cc2c(cc1C=O)OCO2
> 100 µM

Find the measured TGI of Cc1cccc(-n2c(N)c(-c3nc4ccccc4[nH]3)sc2=S)c1 with CCRF-CEM leukemia as test system.
> 100 µM

Write down the reported TGI (system: CCRF-CEM leukemia) of Cc1c[n+]2c3ccccc3c3ccccc3c2s1
28.4 µM
